This section presents compounds with their documented growth values.
- System: HL-60(TB) leukemia
- Assay Explanation: NCI-60 one-dose screen, 48 h (100 = growth as untreated, 0 = no growth, -100 = all killed)
- Experimental Setup: 10 µM unless noted
- Description: Growth inhibition of the HL-60(TB) human tumor cell line is measured as a screen for anti-cancer activity. Cells are grown in 96 well plates and exposed to the test compound for 48 hours. Compounds are tested at a single concentration, which is 10^-5 M for most compounds. The reported endpoint is percent growth (GI% or GIPRCNT), where numbers from 0 - 100% represent growth inhibition, and numbers from -100% - 0 represent cell death. For example, a value of 40 represents 60% growth inhibition. […]
About 83,000 compounds went through this panel and 20% of them were active in at least one assay; those are over-represented in the sample as a whole.
Express it in %; write the number only.

| Smiles Str | Study System | Unit Of Measurement | growth |
| --- | --- | --- | --- |
| Fc1cc(Nc2ccc3c(OCCCN4CCOCC4)cccc3n2)ccc1Cl | HL-60(TB) leukemia | % | 39.1 |

INPUT: Return growth (reported value) for this compound: "COc1cccc(CCC2C(=O)CCCC2=O)c1"
OUTPUT: 87.2

INPUT: Return growth (reported value) for this compound: "CC1=C(C(=O)n2c3ccccc3c3ccccc32)C(c2cccc([N+](=O)[O-])c2)C(C(=O)n2c3ccccc3c3ccccc32)=C(C)N1"
OUTPUT: 91

INPUT: Return growth (reported value) for this compound: "C=C1C(=O)O[C@H]2[C@H]1CC/C(COC(=O)/C=C\C(=O)NCc1ccc(Cn3c(=O)sn(-c4ccc(OC)cc4)c3=O)cc1)=C\CC[C@@]1(C)O[C@@H]21"
OUTPUT: -35.8
